Task for the reader: assign each of the following molecules its reported log10(EC50).
biological target: Human STING (Homo sapiens, UniProt Q86WV6, G230A/H232R/R293Q/R71H); construct: host or cells: THP1-Dual cells (human monocytic reporter line); test: EC50 in THP1-Dual cells, IRF3 reporter (QUANTI-Luc); type: cell-based; conditions: THP1 cell line, 24 h
Sequence (Q86WV6 whole entry R71H/G230A/H232R/R293Q): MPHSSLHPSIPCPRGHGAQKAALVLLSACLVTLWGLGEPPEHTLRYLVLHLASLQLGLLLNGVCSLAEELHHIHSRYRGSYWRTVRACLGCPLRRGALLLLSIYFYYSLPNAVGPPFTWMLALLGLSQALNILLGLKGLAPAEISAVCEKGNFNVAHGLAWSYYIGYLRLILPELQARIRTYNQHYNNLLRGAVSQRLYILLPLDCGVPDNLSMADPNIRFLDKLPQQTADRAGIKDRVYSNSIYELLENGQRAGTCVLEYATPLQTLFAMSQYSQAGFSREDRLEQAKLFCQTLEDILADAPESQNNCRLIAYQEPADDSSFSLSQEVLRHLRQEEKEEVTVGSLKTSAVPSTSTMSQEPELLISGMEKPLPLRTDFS
// units: nM (pre-log); metric: EC50; scale: log10

[[record]]
molecule = "BP1(=O)OCC2O[C@@H](n3cnc4c(N)ncnc43)[C@H](F)[C@@H]2OP(=O)(S)OC[C@H]2O[C@@H](n3cnc4c(=O)[nH]c(N)nc43)[C@H](F)[C@@H]2O1 (single isomer, unassigned) [Compound C4]"
reported_measurement = 2.80

[[record]]
molecule = "B[P@]1(=O)OC[C@H]2O[C@@H](n3cnc4c(N)ncnc43)[C@H](F)[C@@H]2OP(=O)(O)OC[C@H]2O[C@@H](n3cnc4c(N)ncnc43)[C@H](O1)C2F (stereo partly drawn) [Compound I2]"
reported_measurement = 3.80

[[record]]
molecule = "BP1(=O)OCC2O[C@@H](n3cnc4c(N)ncnc43)[C@H](F)[C@@H]2OP(=O)(O)OC[C@H]2O[C@@H](n3cnc4c(=O)[nH]c(N)nc43)[C@H](F)[C@@H]2O1 (stereo partly drawn) [Compound F2]"
reported_measurement = 3.19

[[record]]
molecule = "BP1(=O)OCC2O[C@@H](n3cnc4c(N)ncnc43)[C@H](F)[C@@H]2OP(=O)(S)OC[C@H]2O[C@@H](n3cnc4c(=O)[nH]c(N)nc43)[C@H](F)[C@@H]2O1 (single isomer, unassigned) [Compound C3]"
reported_measurement = 2.57

[[record]]
molecule = "BP1(=O)OC[C@H]2O[C@@H](n3cnc4c(=O)[nH]c(N)nc43)[C@H](F)[C@@H]2OP(=O)(O)OCC2O[C@@H](n3cnc4c(N)ncnc43)[C@H](F)[C@@H]2O1 (stereo partly drawn) [Compound G2]"
reported_measurement = 3.03


Need log10(EC50) for each of these molecules.
1. BP1(=O)OCC2O[C@@H](n3cnc4c(N)ncnc43)[C@H](F)[C@@H]2OP(=O)(S)OC[C@H]2O[C@@H](n3cnc4c(=O)[nH]c(N)nc43)[C@H](F)[C@@H]2O1 (single isomer, unassigned) [Compound C2]
2. BP1(=O)OCC2O[C@@H](n3cnc4c(N)ncnc43)[C@H](F)[C@@H]2OP(=O)(O)OC[C@H]2O[C@@H](n3cnc4c(=O)[nH]c(N)nc43)[C@H](F)[C@@H]2O1 (stereo partly drawn) [Compound F1]
3. BP1(=O)OC[C@H]2O[C@@H](n3cnc4c(=O)[nH]c(N)nc43)[C@H](F)[C@@H]2OP(=O)(S)OCC2O[C@@H](n3cnc4c(N)ncnc43)[C@H](F)[C@@H]2O1 (single isomer, unassigned) [Compound B2]

Reply text:
2.63
3.06
4.17
